endpoint: melting point

1) c1ccc(Cc2nnn[nH]2)c(COc2ccc3oc(-c4nc5c(s4)NCCCC5)cc3c2)c1 :: 110 to 118 °C
2) FC(F)(F)Oc1cccc(C=Cc2nc(CNc3ccc(CCCCn4ccnn4)cc3)co2)c1 :: 91 to 93 °C
3) CNc1cccc(F)c1C#N :: 130 to 132 °C
4) Nc1ccc2c3c(cccc13)C(=O)N(O)C2=O :: > 360 °C

Then this molecule:
I'd like to know its melting point. The molecule in question is Oc1ccc2nc(Cc3ccc(Cl)cc3)oc2c1 167 to 168 °C

---

endpoint: melting point

1. CCCCOC(=N)c1sc2ccccc2c1O :: 185 °C

I'd like to know its melting point. The compound in question is O=C(O)c1cccc2c1CCc1ccc(F)cc1S2 209 to 211 °C

I'd like to know its melting point. The compound in question is CCCCCCSc1nn2c(=O)cc(-c3ccccc3)nc2s1 90 to 91 °C

---

# melting point annotations

Would you please look over these solved cases?
1. C=CC1=C(C(=O)OCC)C(C(F)(F)F)Oc2ccc(Cl)cc21 (stereo unspecified) :: 51.9 to 53.2 °C
2. CCOC(=O)CC1=C(O)c2sccc2S(=O)(=O)N1C :: 161 to 163 °C
3. COC(=O)C(Cc1ccccc1)Cc1ccc(OCCn2c(=O)sc3cc(C(=O)c4ccccc4)ccc32)cc1 (stereo unspecified) :: 65 to 67 °C
4. CC(C)(CO)c1ccc(Br)cc1 :: 46.5 to 48 °C

I'd like to know its melting point. The molecule in question is NC1CC(=O)N(Cc2ccccc2)C1=O (stereo unspecified) 74 to 77 °C

I'd like to know its melting point. The molecule in question is CCOC(=O)[C@H](CO)NC(=O)[C@H](CC(=O)OCc1ccccc1)NC(=O)OC(C)(C)C 96 to 97 °C

---

# melting point annotations

1) CCOC(=O)c1nc[nH]c1-c1ccccc1 :: 203 to 205 °C

Then this compound:
I'd like to know its melting point. The compound in question is CC[C@H](C)[C@H](NC(=O)Nc1cccc(C)c1)C(=O)N[C@H](CO)Cc1c[nH]c2ccccc12 185 to 186 °C

---

# melting point annotations

Would you please look over these solved cases?
1) CC(Cl)C(=O)Nc1ccccc1C(=O)CC(=O)Nc1nccs1 (stereo not given) :: 204 °C
2) [O-][N+](C1C2CC(c3ccccc32)C1Cl)=[N+]([O-])C1C2CC(c3ccccc32)C1Cl (stereo not given) :: 187 to 188 °C
3) O=c1c2ccc(OCC3CO3)cc2oc2ccc3cccc(O)c3c12 (stereo not given) :: 191 to 193 °C
4) CN1CCN(C)CCN2CCOCCOCCN(CC1)CCN(C)CCN(C)CC2 :: 32 to 33 °C
5) Cn1cccc1C1=CC(=O)c2ccccc2C1=O :: 95 to 96 °C

I'd like to know its melting point. The compound in question is Cc1cccc(Nn2cnc(C)c2-c2cccc(C#N)c2)c1 138 to 140 °C

I'd like to know its melting point. The compound in question is O=Cc1c2ccccc2cc2ccc(Cl)cc12 148 to 150 °C

I'd like to know its melting point. The compound in question is Cc1scc2c1N(C(=O)N1CC3CN(C)CC3C1)c1ccccc1NC2=O (stereo not given) 220 to 222 °C

I'd like to know its melting point. The compound in question is O=Cc1cc(OCc2ccccc2)c(OCc2ccccc2)cc1Cl 100 to 102 °C

I'd like to know its melting point. The compound in question is OCc1cn(C(c2ccccc2)(c2ccccc2)c2ccccc2)nn1 200 to 201 °C

I'd like to know its melting point. The compound in question is Cc1ccc(N2C(=O)C(O)=C(C(=NOCC(=O)O)c3ccc(C(C)C)cc3)C2c2ccc(C(C)C)cc2)nn1 (stereo not given) 234 °C

I'd like to know its melting point. The compound in question is CCc1nn(C)c2[nH]c(=O)c3ccccc3c12 291 to 294 °C

I'd like to know its melting point. The compound in question is CC(C)(C)c1cc(CCc2ccccc2NC(=O)NC2CCN(Cc3cccc(F)c3)CC2)cc(C(C)(C)C)c1O 99 to 100 °C

I'd like to know its melting point. The compound in question is OC1CCc2cccc(Nc3cc(-c4ccc(C(F)(F)F)cc4)ncn3)c2C1 (stereo not given) 178 to 179 °C

I'd like to know its melting point. The compound in question is COc1ccnc(N2CCN(C(=O)c3cccs3)CC2)n1 143 to 145 °C

I'd like to know its melting point. The compound in question is Fc1ccc(Cn2cnc3c(-c4ccco4)nc(Cl)nc32)cc1 152 to 155 °C

I'd like to know its melting point. The compound in question is COc1cc(N)c(Cl)cc1C(=O)NCC1CCN(CCCCCC(=O)c2ccc(C)c(C)c2)CC1 115 to 117 °C

I'd like to know its melting point. The compound in question is COc1ccc(Cl)cc1C(=O)Nc1ccc(CCC(=O)O)cc1 188 to 190 °C

I'd like to know its melting point. The compound in question is Cc1cc(C)c2c(c1C)OCC2c1ccccc1 (stereo not given) 72 to 73 °C

I'd like to know its melting point. The compound in question is CN(CSC(C)(C)CC(C)(C)C)C(=O)Nc1cccc(C(F)(F)F)c1 52 to 54 °C

---

# melting point annotations

1) Cc1oc(-c2ccccc2)nc1CCOc1ccc(C[C@@H](C(=O)O)n2cccc2)cc1 :: 155 to 156 °C
2) CCc1c(-c2nnc(C)s2)cc2oc(=O)c(C)c(C)c2c1OC :: 201 to 203 °C
3) c1ccc2c(c1)Cn1cccc1C1(CCNCC1)O2 :: 168 to 170 °C
4) Nc1c(C(O)(C(F)(F)F)C(F)(F)F)ccc2cc(O)ccc12 :: 160 to 161 °C
5) CC1(C(O)C(N)=O)CC=CCC1 (centres undefined) :: 102 to 110 °C
6) CN1CCC(C2(O)c3ccccc3Oc3ccc(Cl)cc32)CC1 (centres undefined) :: 206 to 208 °C
7) Cc1cn(-c2cc3c(cc2C(F)(F)F)[nH]c(=O)c2n[nH]c(=O)n23)c(C)n1 :: > 330 °C
8) CN1CC[C@@H]2CC(=O)c3cc(F)ccc3[C@H]2C1 (relative stereo) :: > 250 °C
9) CC(=O)SCC(Cc1ccccc1)C(=O)NCc1ccc(C(=O)OCc2ccccc2)cc1 (centres undefined) :: 142 to 143 °C
10) CC(C(N)=O)c1ccc2c(c1)Oc1ccccc1CC2=O (centres undefined) :: 159 to 160 °C

I'd like to know its melting point. The molecule in question is CCOC(=O)C(=O)Nc1c([N+](=O)[O-])cc(C#N)c2ccccc12 178 °C

I'd like to know its melting point. The molecule in question is OCC(CO)(OCc1ccccc1)c1ccccc1 83 to 86 °C

I'd like to know its melting point. The molecule in question is Cc1cc(Nc2nc(-c3ccc(Cl)c(Cl)c3)nc3ccccc23)[nH]n1 274 °C

I'd like to know its melting point. The molecule in question is O=C(Nc1ccc2c(c1)C(F)(F)C(F)(F)O2)N1CC(c2ccccc2)=C(c2ccc(OC(F)F)cc2)N1 155 to 159 °C

I'd like to know its melting point. The molecule in question is CCOC(=O)c1nc(-c2ccc([N+](=O)[O-])cc2)[nH]c1-c1cccc(OC)c1 194 to 196 °C

I'd like to know its melting point. The molecule in question is O=C(Nc1ccc(C(=O)O)cc1)OCc1ccccc1 > 235 °C

I'd like to know its melting point. The molecule in question is CCOC(=O)c1[nH]c2ccccc2c1CN(Cc1cc(C(F)(F)F)cc(C(F)(F)F)c1)c1nnn(C)n1 83 °C

I'd like to know its melting point. The molecule in question is CS(=O)(=O)OCCOc1ccc(CN2C(=O)C(=O)c3cc(S(=O)(=O)N4CCCC4COc4ccccc4)ccc32)cc1 (centres undefined) 152 to 153 °C

I'd like to know its melting point. The molecule in question is CC1=C(C(=O)OCCO)C(c2ccccc2OCc2ccccc2)C([N+](=O)[O-])=C(C)N1 (centres undefined) 183 to 185 °C

---

endpoint: melting point

Would you please look over these solved cases?
1) Nc1ncnc2[nH]c(Br)c(-c3ccc(Oc4ccccc4)cc3)c12 :: 282 to 283 °C
2) CCCCCc1ccc(C(=O)Nc2ccc3cc(CN4CCCC4)cnc3c2C)cc1 :: 121 °C

I'd like to know its melting point. The molecule in question is CN1CCN(C(=O)[C@H]2CC[C@H](c3[nH]nc4c3C(=O)c3c(NC(=O)NN5CCOCC5)cccc3-4)CC2)CC1 228 to 230 °C

I'd like to know its melting point. The molecule in question is O=C(O)c1cn([C@@H]2C[C@@H]2F)c2cc(N3C[C@@H]4NCCO[C@H]4C3)c(F)cc2c1=O > 250 °C

I'd like to know its melting point. The molecule in question is COC(=O)C1(C(=O)Nc2ccc(Br)cc2C)C2CCCCC21 (centres undefined) 105 to 107 °C

Data provenance is a melting point compilation (Tetko et al.; mined from patent text by program, amines drawn as free bases though some values may be those of a salt).
